For each entry below, report its IC50 value.
biological target: Phosphodiesterase 4 (Homo sapiens, UniProt P27815+Q08499+Q07343+Q08493); test: Inhibition of PDE4 (unknown origin); type: protein assay
Give bare numbers, in nM.

Guide cases for IC50, answers given:
> print(dat)
                                   molecule                           target.of.assay  unit.name  reported.measurement
1  O=C(NC1(O)CC1)c1cn(-c2cccc(-c3ccc([C@@H]4C[C@H]4C(=O)O)cc3)c2)c2ncccc2c1=O (relative stereo)  Phosphodiesterase 4 (Homo sapiens, UniProt P27815+Q08499+Q07343+Q08493)         nM                    17
2  O=C(NC1CCC1)c1cn(-c2cccc(-c3ccc([C@@H]4C[C@H]4C(=O)O)cc3)c2)c2ncccc2c1=O (relative stereo)  Phosphodiesterase 4 (Homo sapiens, UniProt P27815+Q08499+Q07343+Q08493)         nM                  0.52

Which measured IC50 value corresponds to O=C(NC1CC1)c1cn(-c2cccc(-c3ccc([C@@H]4C[C@H]4c4nnn[nH]4)cc3)c2)c2ncccc2c1=O (relative stereo) ?
0.55

----------
For each entry below, report its IC50 value.
molecular target: cGMP-specific 3',5'-cyclic phosphodiesterase (Homo sapiens)
Give bare numbers, in nM.

> print(dat)
                            molecule.smiles  reported.measurement
1  CCNc1cc(C#N)cc2c(NCc3ccc(OC)c(Cl)c3)c(CO)cnc12                  0.27

Read the next record carefully.
Which measured IC50 value corresponds to `COc1ccc(CNc2c(CO)cnc3c(NC4CC4)cc(C#N)cc23)cc1Cl` ?
0.27

----------
target: Phosphodiesterase 4 (Homo sapiens, UniProt P27815+Q08499+Q07343+Q08493); test: Inhibition of PDE4 (unknown origin); assay type: protein assay
Measured property: IC50 (nM)
Numbers only, in nM.

> print(dat)
                                   molecule  measured.property  reported.measurement
1  O=C(NC1CC1)c1cn(-c2cccc(-c3ccc([C@@H]4C[C@@H]4C(=O)O)c(F)c3)c2)c2ncccc2c1=O (relative stereo)               IC50                  0.53
2  O=C(NC1CC1)c1cn(-c2cccc(-c3ccccc3[C@@H]3C[C@H]3C(=O)O)c2)c2ncccc2c1=O (relative stereo)               IC50                   4.6

# batch size: 3; output IC50 per entry
1. O=C(NC1CC1)c1cn(-c2cccc(-c3cccc([C@@H]4C[C@H]4C(=O)O)c3)c2)c2ncccc2c1=O
2. CC(C)(Cc1ccc(-c2cccc(-n3cc(C(=O)NC4CC4)c(=O)c4cccnc43)c2)cc1)C(=O)O
3. CCCCCC[C@H]([C@H](C)O)n1cnc2c(N)ncnc21 (relative stereo) [(+)-EHNA]

0.54
0.88
1700

# batch size: 6; output IC50 per entry
1. CC(C)(CC(=O)O)c1ccc(-c2cccc(-n3cc(C(=O)NC4CC4)c(=O)c4cccnc43)c2)cc1
2. CC(C)(c1cc(-c2cccc(-c3ccc([C@@H]4C[C@H]4C(=O)O)cc3)c2)c2ncccc2c1)S(C)(=O)=O (relative stereo)
3. O=C(NCC1CC1)c1cn(-c2cccc(-c3ccc([C@@H]4C[C@H]4C(=O)O)cc3)c2)c2ncccc2c1=O (relative stereo)
4. O=C(NCC(F)(F)F)c1cn(-c2cccc(-c3ccc([C@@H]4C[C@H]4C(=O)O)cc3)c2)c2ncccc2c1=O (relative stereo)
5. CC(C)(C)NC(=O)c1cn(-c2cccc(-c3ccc([C@@H]4C[C@H]4C(=O)O)cc3)c2)c2ncccc2c1=O (relative stereo)
6. O=C(NC1CC1)c1cn(-c2cccc(C#Cc3ccc[n+]([O-])c3)c2)c2ncccc2c1=O [MK-0873]

1: 0.85; 2: 0.32; 3: 0.35; 4: 0.51; 5: 32; 6: 5.1

# batch size: 3; output IC50 per entry
1. CC1(NC(=O)c2cn(-c3cccc(-c4ccc([C@@H]5C[C@H]5C(=O)O)cc4)c3)c3ncccc3c2=O)CC1 (relative stereo)
2. O=C(NC1CC1)c1cn(-c2cccc(-c3ccc([C@@H]4C[C@@H]4C(=O)O)cc3)c2)c2ncccc2c1=O (relative stereo)
3. O=C(NC1CC1)c1cn(-c2cccc(-c3ccc([C@@H]4C[C@H]4C(=O)O)cc3)c2)c2ncccc2c1=O (relative stereo)

[0.58, 1.6, 0.57]
